Experiment: Toxicity liver stage against HepG2, at 10uM
Format: cell-based
Set-up: test concentration 10 uM, cell line HepG2-A16-CD81EGFP
Conditions: human, HepG2-A16-CD81EGFP cells; read-out: INHIBITION
quantity.name: cytotoxicity at 10 µM
Give the value; after it, write the unit.

Sure, the documented cytotoxicity at 10 µM for O=C(c1ccc[nH]1)N1CCCn2c(CN3CCCCC3)nnc2C1 is -106%

Sure, the documented cytotoxicity at 10 µM for FC(F)(F)c1cc(C2CCCN(Cc3ccncc3)C2)n[nH]1 (stereo not drawn) is -52.8%

Sure, the documented cytotoxicity at 10 µM for c1cc(-c2cnc(NC3CC3)nc2[C@@H]2CCCO2)ccn1 is 8.72%

Sure, the documented cytotoxicity at 10 µM for CCCNC(=O)COc1ccc(-c2ccccc2)nc1 is 6.16%

Sure, the documented cytotoxicity at 10 µM for O=C([C@H]1CCCO1)N1CC[C@@H](O)[C@@H]1Cc1ccccc1 is 1.41%

Sure, the documented cytotoxicity at 10 µM for Cc1ccc(C2CSCCN2C(=O)c2ccccn2)cc1 (stereo not drawn) is 2.04%

Sure, the documented cytotoxicity at 10 µM for CC(C)c1cc(C(=O)N2CCCC3(CCNC3)C2)no1 (stereo not drawn) is 5.28%

Sure, the documented cytotoxicity at 10 µM for COCCNC(=O)CN1CCN(c2nc3cc(C)ccc3o2)CC1 is 5.75%

Sure, the documented cytotoxicity at 10 µM for CC(C)n1nc(Cn2cccn2)c2c1CN(C1CCOCC1)C2 is 6.98%

Sure, the documented cytotoxicity at 10 µM for COc1ccc2c(C)c(C(=O)N3CCC(NC(C)=O)C3)oc2c1 (stereo not drawn) is 7.72%

Sure, the documented cytotoxicity at 10 µM for CC(=O)Nc1nc(C(=O)NCc2ccc(N3CCOC(C)C3)nc2)cs1 (stereo not drawn) is 0.109%

Sure, the documented cytotoxicity at 10 µM for Cc1nc(CN(C)C2CCCN(c3ccccc3)C2)no1 (stereo not drawn) is -6.9%

Sure, the documented cytotoxicity at 10 µM for Cc1ccc(N2C[C@H]3CCC[C@@H](CN(C)C)[C@H]3C2)nn1 is 8.82%

Sure, the documented cytotoxicity at 10 µM for O=S(=O)(NCCN1CC=CC1)c1ccc(Cl)cc1 is -6.04%

Sure, the documented cytotoxicity at 10 µM for COCCN1CCC(CNC(=O)c2ccnc(-n3ccnc3)c2)CC1 is -1.63%

Sure, the documented cytotoxicity at 10 µM for Cc1nc(Cn2cncc(Br)c2=O)no1 is -12.2%

Sure, the documented cytotoxicity at 10 µM for OCCCN1CCCC1c1ccc(Br)cc1 (stereo not drawn) is 2.94%

Sure, the documented cytotoxicity at 10 µM for Cc1nccn1C1CCCN(C(=O)c2cccc(-n3cccc3)c2)C1 (stereo not drawn) is -23%

Sure, the documented cytotoxicity at 10 µM for N#Cc1ccc(N2CCCC3(CCC(=O)N3CC3CC3)CC2)nc1 (stereo not drawn) is -125%

Sure, the documented cytotoxicity at 10 µM for CCN1C[C@@H]2CN(c3cc(OC)ncn3)CCC[C@]2(C(=O)O)C1 is -2.58%

Sure, the documented cytotoxicity at 10 µM for Cc1cccc(C(=O)NCCS(=O)(=O)Cc2ccccc2)c1 is -7.43%

Sure, the documented cytotoxicity at 10 µM for CS(=O)(=O)c1ccc(CN2C[C@@H]3CC[C@H]2CN(c2ncccn2)C3)cc1 is 0.345%

Sure, the documented cytotoxicity at 10 µM for O=C(NCC1CCCN(C(=O)NCCc2ccccc2)C1)c1ccco1 (stereo not drawn) is -4.66%

Sure, the documented cytotoxicity at 10 µM for CC(C)(C)c1cc(CN2CCOCC(O)C2)n[nH]1 (stereo not drawn) is -3.89%

Sure, the documented cytotoxicity at 10 µM for COc1cc(C(=O)O)ccc1OCC(=O)NCCc1ccccc1 is -10.6%

Sure, the documented cytotoxicity at 10 µM for CN(CC1Cc2ccccc2CN1C)C(=O)CSc1nccn1C (stereo not drawn) is -10.8%

Sure, the documented cytotoxicity at 10 µM for Cc1nc(C)n(CC2CCCN2Cc2nc3ccccc3nc2C)n1 (stereo not drawn) is 6.21%

Sure, the documented cytotoxicity at 10 µM for CCCN1CCCn2nc(CNS(=O)(=O)c3ccc(F)cc3)cc2C1 is -8.57%

Sure, the documented cytotoxicity at 10 µM for Cc1oc(-c2cccc(F)c2)nc1CN1CCOCS1(=O)=O is 2.74%

Sure, the documented cytotoxicity at 10 µM for COc1cccc(C(=O)N2CCOCC2CN(C)C)c1OC (stereo not drawn) is -4.03%

Sure, the documented cytotoxicity at 10 µM for CC(C)Oc1ccc(CN2CCC(c3n[nH]c4ncccc34)CC2)cc1 is -21.4%

Sure, the documented cytotoxicity at 10 µM for Cc1oncc1S(=O)(=O)N1CCCC(C)(Cc2ccc3c(c2)OCO3)C1 (stereo not drawn) is 1.3%

Sure, the documented cytotoxicity at 10 µM for CC(CNC(=O)N1CCN(c2ncccn2)CC1)Cc1cccs1 (stereo not drawn) is -7.9%

Sure, the documented cytotoxicity at 10 µM for CN(Cc1ccncc1)C(=O)Nc1cnn(CC2CCCO2)c1 (stereo not drawn) is -0.291%

Sure, the documented cytotoxicity at 10 µM for Fc1ccc(C2(CNC3=NCCCN3)CCC2)cc1 is 7.2%

Sure, the documented cytotoxicity at 10 µM for NC(=O)c1ccc(C2CCCN2C(=O)CCc2nc3ccccc3s2)s1 (stereo not drawn) is -8.8%

Sure, the documented cytotoxicity at 10 µM for Cc1ccc(F)c(S(=O)(=O)NCc2[nH]ncc2Br)c1 is 0.67%

Sure, the documented cytotoxicity at 10 µM for Cc1cc(C)cc(S(=O)(=O)NCC2CNCCOC2)c1 (stereo not drawn) is -1.86%

Sure, the documented cytotoxicity at 10 µM for Cc1cccc(S(=O)(=O)N2CC[C@H]3[C@H]2CCN3c2ncccn2)c1 is 0.995%

Sure, the documented cytotoxicity at 10 µM for CCOCC1CN(Cc2ccoc2)Cc2nn(CC3CC3)cc21 (stereo not drawn) is -11.9%

Sure, the documented cytotoxicity at 10 µM for CS(=O)(=O)NCC1(c2ccccc2Br)CC1 is -5.51%

Sure, the documented cytotoxicity at 10 µM for Cc1nn(C)c2nc(N(C)CCN(C)C3CCCC3)sc12 is 3.55%

Sure, the documented cytotoxicity at 10 µM for Cc1cc(C(=O)N2C[C@@H](CN3CCOCC3)C[C@H](CO)C2)nc(C)n1 is 3.63%

Sure, the documented cytotoxicity at 10 µM for Cn1ccnc1CN1CCC2(CC1)Cc1ccccc1CNC2=O is -1.6%

Sure, the documented cytotoxicity at 10 µM for c1ncc2c(n1)CN(Cc1cn3ccsc3n1)CC2 is 11.3%

Sure, the documented cytotoxicity at 10 µM for CC(NC(=O)NCCn1ccnc1)c1ccc2c(c1)OCCO2 (stereo not drawn) is -9.44%

Sure, the documented cytotoxicity at 10 µM for COc1cccn(CC(=O)N(C)CCOc2cc(C)cc(C)c2)c1=O is -10.6%

Sure, the documented cytotoxicity at 10 µM for COc1ccc(C[C@H]2CN(Cc3ccoc3)CC[C@@H]2OC)cc1 is 2.51%
